Cited source for all entries: the Human Domainome abundance scans (Beltran et al. 2025)

B1: POU domain, class 2, transcription factor 2, residues 200 to 269; numbered along this chain, P09086 (parent)
chain: LEELEQFARTFKQRRIKLGFTQGDVGLAMGKLYGNDFSQTTISRFEALNLSFKNMCKLKPLLEKWLNDAE

Variants of: B1
procedureText: abundance fitness (aPCA) (normalised: wild type 0, dead -1); higher = more abundant; growth selection in yeast, the domain comes from the species named
runConditions: Homo sapiens
endpointName: abundance fitness
Write the value as a bare number.

Use the examples below as a reference point.
Inquiry: Quick one: abundance fitness of "C56V" ?
Reply text: -0.029

Inquiry: Quick one: abundance fitness of "Q6A" ?
Reply text: -0.095

Inquiry: Quick one: abundance fitness of "G23T" ?
Reply text: -0.102

Inquiry: Quick one: abundance fitness of "A8I" ?
Reply text: -0.082

Further cases:
Inquiry: Quick one: abundance fitness of "Q6G" ?
Reply text: -0.048

Inquiry: Quick one: abundance fitness of "C56L" ?
Reply text: 0.007

Inquiry: Quick one: abundance fitness of "I42P" ?
Reply text: -0.857

Inquiry: Quick one: abundance fitness of "A69K" ?
Reply text: -0.105

Inquiry: Quick one: abundance fitness of "M29R" ?
Reply text: -0.655

Inquiry: Quick one: abundance fitness of "V25K" ?
Reply text: -0.894

Inquiry: Quick one: abundance fitness of "L32P" ?
Reply text: -0.209

Inquiry: Quick one: abundance fitness of "T40N" ?
Reply text: -0.107

Inquiry: Quick one: abundance fitness of "G34D" ?
Reply text: -0.065

Inquiry: Quick one: abundance fitness of "P60S" ?
Reply text: -0.069

Inquiry: Quick one: abundance fitness of "G34W" ?
Reply text: -0.207

Inquiry: Quick one: abundance fitness of "N67Y" ?
Reply text: -0.497

Inquiry: Quick one: abundance fitness of "D24K" ?
Reply text: -0.202

Inquiry: Quick one: abundance fitness of "V25E" ?
Reply text: -0.926

Inquiry: Quick one: abundance fitness of "G34L" ?
Reply text: -0.208

Inquiry: Quick one: abundance fitness of "N35A" ?
Reply text: -0.016

Inquiry: Quick one: abundance fitness of "D68F" ?
Reply text: 0.085

Inquiry: Quick one: abundance fitness of "M55I" ?
Reply text: -0.175

Inquiry: Quick one: abundance fitness of "Q39T" ?
Reply text: 0.042

Inquiry: Quick one: abundance fitness of "L66I" ?
Reply text: 0.03

Inquiry: Quick one: abundance fitness of "N49L" ?
Reply text: -0.032

Inquiry: Quick one: abundance fitness of "R44S" ?
Reply text: 0.065
